FYI, the data here is from patent US20240209001A1.

Property: IC50; scope: individual compounds
# targetSystem: JAK 1 (Homo sapiens (Human), UniProt P23458)
# Sequence (P23458 whole entry): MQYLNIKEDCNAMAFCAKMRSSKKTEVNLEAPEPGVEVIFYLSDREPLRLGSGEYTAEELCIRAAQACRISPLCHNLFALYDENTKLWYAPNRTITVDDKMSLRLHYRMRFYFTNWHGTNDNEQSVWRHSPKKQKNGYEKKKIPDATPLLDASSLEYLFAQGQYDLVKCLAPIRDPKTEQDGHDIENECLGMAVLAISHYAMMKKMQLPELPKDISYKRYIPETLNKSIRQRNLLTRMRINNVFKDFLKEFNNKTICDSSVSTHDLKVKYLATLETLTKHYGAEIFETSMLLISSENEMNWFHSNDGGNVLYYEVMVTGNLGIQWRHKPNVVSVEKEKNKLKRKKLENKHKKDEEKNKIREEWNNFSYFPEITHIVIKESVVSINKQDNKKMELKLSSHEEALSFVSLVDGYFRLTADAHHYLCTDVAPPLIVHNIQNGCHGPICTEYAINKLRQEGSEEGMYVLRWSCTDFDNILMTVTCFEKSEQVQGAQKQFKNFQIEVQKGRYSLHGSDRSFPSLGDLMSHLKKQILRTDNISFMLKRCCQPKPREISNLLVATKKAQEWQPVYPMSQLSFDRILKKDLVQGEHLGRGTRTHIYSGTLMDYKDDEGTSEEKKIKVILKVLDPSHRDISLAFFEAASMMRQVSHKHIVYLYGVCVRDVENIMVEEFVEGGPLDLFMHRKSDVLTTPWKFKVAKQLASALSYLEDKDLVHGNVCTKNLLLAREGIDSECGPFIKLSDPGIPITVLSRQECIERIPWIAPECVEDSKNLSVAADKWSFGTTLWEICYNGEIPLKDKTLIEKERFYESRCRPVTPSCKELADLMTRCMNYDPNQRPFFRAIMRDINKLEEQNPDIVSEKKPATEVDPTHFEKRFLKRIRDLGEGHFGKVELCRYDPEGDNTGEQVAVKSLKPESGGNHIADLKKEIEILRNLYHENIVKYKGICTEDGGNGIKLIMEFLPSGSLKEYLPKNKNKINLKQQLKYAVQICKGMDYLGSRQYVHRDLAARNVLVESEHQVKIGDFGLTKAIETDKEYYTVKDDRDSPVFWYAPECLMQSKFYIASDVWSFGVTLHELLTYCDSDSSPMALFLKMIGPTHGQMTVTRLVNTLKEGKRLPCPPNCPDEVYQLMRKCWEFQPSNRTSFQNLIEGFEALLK
# experimentNotes: Biochemical potency on JAK1, TR-FRET LANCE Ultra kinase assay (compounds 1-92)
# recordedConditions: ATP at Km, read-out: JAK1 inhibitory activity (pIC50 class) (converted)
quantity: IC50

* CNC(=O)c1ccc(-n2nc(C)c3cnc(-c4cnn5cccnc45)cc32)c(OC)c1 | > 50.1 nM
* COCCN1CCC(CNc2nn(-c3ccc(NS(C)(=O)=O)cc3OC)c3cc(-c4cnn5cccnc45)ncc23)CC1 | ≤ 5.01 nM
* COc1cc(NS(C)(=O)=O)ccc1-n1nc(NCCN2CCN(C)CC2)c2cnc(-c3cnn4cccnc34)cc21 | ≤ 5.01 nM
* COc1cc(NS(=O)(=O)CC(F)F)ccc1-n1nc(C)c2cnc(-c3cnn4cccnc34)cc21 | ≤ 5.01 nM
* COc1cc(NS(=O)(=O)CCC(N)=O)ccc1-n1nc(C)c2cnc(-c3cnn4cccnc34)cc21 | ≤ 5.01 nM
* CCCS(=O)(=O)Nc1ccc(-n2nc(NCCN3CCOCC3)c3cnc(Nc4ncc[nH]c4=O)cc32)c(OC(F)F)c1 | ≤ 5.01 nM
* CNS(=O)(=O)c1ccc(-n2nc(NCCCN(C)C)c3cnc(-c4cnn5cccnc45)cc32)c(OC)c1 | 5.01 to 50.1 nM
* COc1cc(NS(=O)(=O)C2CC2)ccc1-n1nc(CC#N)c2cnc(-c3cnn4cccnc34)cc21 | ≤ 5.01 nM
* COc1cc(CNS(C)(=O)=O)ccc1-n1nc(C)c2cnc(-c3cnn4cccnc34)cc21 | ≤ 5.01 nM
* COc1cc(NS(C)(=O)=O)ccc1-n1nc(NCC2CN(C)CCO2)c2cnc(-c3cnn4cccnc34)cc21 (racemic) | ≤ 5.01 nM
* COc1cc(NS(=O)(=O)CC2CC2)ccc1-n1nc(C)c2cnc(-c3cnn4cccnc34)cc21 | ≤ 5.01 nM
* CCCS(=O)(=O)Nc1ccc(-n2nc(C)c3cnc(-c4cnn5cccnc45)cc32)c(OC)c1 | ≤ 5.01 nM
* COc1cc(CNC(C)=O)ccc1-n1nc(C)c2cnc(-c3cnn4cccnc34)cc21 | > 50.1 nM
* COc1cc(CNS(=O)(=O)CC#N)ccc1-n1nc(C)c2cnc(-c3cnn4cccnc34)cc21 | ≤ 5.01 nM
